Listing: switch fluorescence ratio of selected sequences
test system: ATP; assay: switch fluorescence ratio, 500 uM ATP over buffer (Cy3 cluster intensity, sum of 5 cycles each) (fold (ratio)); higher = stronger signal-on switching upon ATP binding; sequences stand for … in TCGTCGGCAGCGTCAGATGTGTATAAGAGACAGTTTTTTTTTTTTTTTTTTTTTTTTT…TC; conditions: aptamer strand: ATP DNA aptamer (quencher-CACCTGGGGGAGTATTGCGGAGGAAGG + anchor), 100 nM annealed; ATP concentration: 500 uM;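 also: ATP exposure 15 min at 22 °C before imaging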
Form rule: numeric answer, no unit written next to it.

{"MACROMOLECULE SEQUENCE": "ATAACCCCGA", "switch fluorescence ratio": 1.09}
{"MACROMOLECULE SEQUENCE": "CGAAGCTTTT", "switch fluorescence ratio": 1.09}
{"MACROMOLECULE SEQUENCE": "CACGTTGTAT", "switch fluorescence ratio": 1.32}
{"MACROMOLECULE SEQUENCE": "AATGGTTCGG", "switch fluorescence ratio": 0.962}
{"MACROMOLECULE SEQUENCE": "AGGGAATATT", "switch fluorescence ratio": 1.01}

Notebook: AACGTGTTTT , switch fluorescence ratio read as 1.04

Notebook: GATATCAGGA , switch fluorescence ratio read as 0.989

Notebook: TTGGTTGACA , switch fluorescence ratio read as 0.964

Notebook: ACAGCGTGTG , switch fluorescence ratio read as 1.03

Notebook: CATATAGCAC , switch fluorescence ratio read as 1.18

Notebook: TTTGAGTGTT , switch fluorescence ratio read as 0.985

Notebook: TTCTTTATCG , switch fluorescence ratio read as 1.02

Notebook: AAAAGATAAA , switch fluorescence ratio read as 0.977

Notebook: GATATTGAAG , switch fluorescence ratio read as 0.974

Notebook: GTTTAGTATT , switch fluorescence ratio read as 0.999

Notebook: AGCAACATAA , switch fluorescence ratio read as 1.13

----------
system: ATP; experiment: switch fluorescence ratio, 500 uM ATP over buffer (Cy3 cluster intensity, sum of 5 cycles each) (fold (ratio)); higher = stronger signal-on switching upon ATP binding; sequences stand for … in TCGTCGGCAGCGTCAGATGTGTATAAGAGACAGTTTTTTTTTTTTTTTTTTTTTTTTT…TC; conditions: aptamer strand: ATP DNA aptamer (quencher-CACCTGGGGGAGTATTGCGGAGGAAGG + anchor), 100 nM annealed; ATP concentration: 500 uM;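 also: ATP exposure 15 min at 22 °C before imaging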
ATTRIBUTE MEASURED: switch fluorescence ratio

Notebook: TAGTTTGGCT , switch fluorescence ratio read as 1.02

Notebook: GGGGACAATG , switch fluorescence ratio read as 1.02

Notebook: CAGTCGACTG , switch fluorescence ratio read as 1.01

Notebook: AGGCATTATA , switch fluorescence ratio read as 1.01

Notebook: TATCGGGATG , switch fluorescence ratio read as 0.956

Notebook: ACCGGAGCGG , switch fluorescence ratio read as 1.61

Notebook: ATGGCCCGGC , switch fluorescence ratio read as 1.03

Notebook: TGGGGGTGTG , switch fluorescence ratio read as 1.04

Notebook: CTCTAAAAAG , switch fluorescence ratio read as 1.06

Notebook: GTTTTTGGCG , switch fluorescence ratio read as 0.94

Notebook: GATGCTTGTG , switch fluorescence ratio read as 0.978

Notebook: TGATAGAGCC , switch fluorescence ratio read as 1.01

Notebook: ATGGTAACGT , switch fluorescence ratio read as 1.01

----------
tested on: ATP; experiment: switch fluorescence ratio, 500 uM ATP over buffer (Cy3 cluster intensity, sum of 5 cycles each) (fold (ratio)); higher = stronger signal-on switching upon ATP binding; sequences stand for … in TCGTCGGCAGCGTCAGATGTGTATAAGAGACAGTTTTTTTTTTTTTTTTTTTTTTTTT…TC; settings: aptamer strand: ATP DNA aptamer (quencher-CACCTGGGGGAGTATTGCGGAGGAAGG + anchor), 100 nM annealed; ATP concentration: 500 uM;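 also: ATP exposure 15 min at 22 °C before imaging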
ATTRIBUTE MEASURED: switch fluorescence ratio
Form rule: numeric answer, no unit written next to it.

Reference set, count: 3
{"MACROMOLECULE SEQUENCE": "GCGGGAAGGG", "switch fluorescence ratio": 0.995}
{"MACROMOLECULE SEQUENCE": "ATTGATTTTC", "switch fluorescence ratio": 0.999}
{"MACROMOLECULE SEQUENCE": "ATGTGGGATA", "switch fluorescence ratio": 1.01}

Notebook: GGCGGGATCT , switch fluorescence ratio read as 1.21

----------
test system: ATP; assay: switch fluorescence ratio, 500 uM ATP over buffer (Cy3 cluster intensity, sum of 5 cycles each) (fold (ratio)); higher = stronger signal-on switching upon ATP binding; sequences stand for … in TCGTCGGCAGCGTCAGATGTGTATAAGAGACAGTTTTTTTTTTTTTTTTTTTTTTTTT…TC; details: aptamer strand: ATP DNA aptamer (quencher-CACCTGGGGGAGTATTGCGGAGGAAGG + anchor), 100 nM annealed; ATP concentration: 500 uM;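 also: ATP exposure 15 min at 22 °C before imaging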
Listing: switch fluorescence ratio of selected sequences
Form rule: numeric answer, no unit written next to it.

{"MACROMOLECULE SEQUENCE": "TACGTTCCTG", "switch fluorescence ratio": 1.03}
{"MACROMOLECULE SEQUENCE": "CAGTAAAAGG", "switch fluorescence ratio": 1.01}
{"MACROMOLECULE SEQUENCE": "TGACGGGGTT", "switch fluorescence ratio": 0.992}

Notebook: GGTATAAGAT , switch fluorescence ratio read as 1.01

Notebook: ATGTGGGATT , switch fluorescence ratio read as 0.965

Notebook: TATAAATGAA , switch fluorescence ratio read as 0.992

Notebook: TGCTGTCGGC , switch fluorescence ratio read as 1.03

Notebook: GGTTGCTCGT , switch fluorescence ratio read as 1.01

Notebook: ATGCGAATCG , switch fluorescence ratio read as 0.99

Notebook: TATTTAGCCC , switch fluorescence ratio read as 1.05

Notebook: CCTGAAGGCA , switch fluorescence ratio read as 1

Notebook: CATTACAGGG , switch fluorescence ratio read as 1.01

Notebook: AGGGAACTGT , switch fluorescence ratio read as 0.97

Notebook: ATTTTTAGGG , switch fluorescence ratio read as 1.02

Notebook: TTATTTTAGT , switch fluorescence ratio read as 1

Notebook: AAACCGGAAC , switch fluorescence ratio read as 2.26

Notebook: CATGTTGTAT , switch fluorescence ratio read as 0.982

Notebook: GTTTTTTTTC , switch fluorescence ratio read as 0.985

Notebook: ACACGGGTTA , switch fluorescence ratio read as 1

Notebook: TTCCTTCTTT , switch fluorescence ratio read as 1.08

Notebook: TACGAATCT , switch fluorescence ratio read as 1.03

Notebook: AATTCAGCCA , switch fluorescence ratio read as 0.988

Notebook: CGGCGGGCTG , switch fluorescence ratio read as 0.989

Notebook: ATGAAGGGTT , switch fluorescence ratio read as 1

Notebook: TGGGAGGCAT , switch fluorescence ratio read as 1.01

Notebook: CGGGGATGGG , switch fluorescence ratio read as 0.992

Notebook: GTTAATGGAA , switch fluorescence ratio read as 0.986

----------
test system: ATP; experiment: switch fluorescence ratio, 500 uM ATP over buffer (Cy3 cluster intensity, sum of 5 cycles each) (fold (ratio)); higher = stronger signal-on switching upon ATP binding; sequences stand for … in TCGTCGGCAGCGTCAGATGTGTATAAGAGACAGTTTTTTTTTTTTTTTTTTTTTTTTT…TC; settings: aptamer strand: ATP DNA aptamer (quencher-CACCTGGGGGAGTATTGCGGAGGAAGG + anchor), 100 nM annealed; ATP concentration: 500 uM;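 also: ATP exposure 15 min at 22 °C before imaging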
Listing: switch fluorescence ratio of selected sequences
Form rule: numeric answer, no unit written next to it.

Reference set, count: 5
{"MACROMOLECULE SEQUENCE": "TTTTAAACAC", "TEST SYSTEM": "ATP", "OBSERVED VALUE": 1.07}
{"MACROMOLECULE SEQUENCE": "ATGCCGTGGC", "TEST SYSTEM": "ATP", "OBSERVED VALUE": 1.02}
{"MACROMOLECULE SEQUENCE": "ACGCAGGCTT", "TEST SYSTEM": "ATP", "OBSERVED VALUE": 1.05}
{"MACROMOLECULE SEQUENCE": "AAAATGGGCC", "TEST SYSTEM": "ATP", "OBSERVED VALUE": 0.963}
{"MACROMOLECULE SEQUENCE": "AGGGGCATTC", "TEST SYSTEM": "ATP", "OBSERVED VALUE": 1.03}

Sample AGCGGGTCCG , system: ATP. Its switch fluorescence ratio is 0.987

Sample TGCTTGAGCA , system: ATP. Its switch fluorescence ratio is 0.974
